Exercise: state measured cAMP EC50 for each of the binders provided.
Biological target: T1, wild-type human PTH/PTHrP receptor (hP1R-WT) (human, UniProt Q03431 27-593)
T1 sequence (looked up): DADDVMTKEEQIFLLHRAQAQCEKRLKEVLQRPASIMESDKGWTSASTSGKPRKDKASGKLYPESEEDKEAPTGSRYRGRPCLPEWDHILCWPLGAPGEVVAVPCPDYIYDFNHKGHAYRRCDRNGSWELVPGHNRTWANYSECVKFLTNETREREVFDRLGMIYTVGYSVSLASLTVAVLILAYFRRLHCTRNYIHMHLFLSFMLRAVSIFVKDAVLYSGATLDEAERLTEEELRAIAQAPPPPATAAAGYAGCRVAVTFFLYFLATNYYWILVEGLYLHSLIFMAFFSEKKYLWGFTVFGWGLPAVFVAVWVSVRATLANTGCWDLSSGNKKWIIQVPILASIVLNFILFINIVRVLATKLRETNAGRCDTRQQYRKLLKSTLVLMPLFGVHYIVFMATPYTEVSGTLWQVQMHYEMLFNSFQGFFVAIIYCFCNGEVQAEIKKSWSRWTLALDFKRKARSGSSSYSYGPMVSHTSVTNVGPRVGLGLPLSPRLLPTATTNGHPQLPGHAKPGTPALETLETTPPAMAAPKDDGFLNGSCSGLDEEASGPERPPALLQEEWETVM
Test: cell-based or functional assay
Square brackets hold non-standard residues; d marks the D form. Ends that are not written are not given here. hArg = N=C(N)NCCCC[C@H](N)C(=O)O; Aib = CC(C)(N)C(=O)O
Give bare numbers, in nM.

binder	value_kind	unit_abbrev	reading
AVAEIQLMHQ[hArg]A[Aib]W-NH2 (N-terminus assumed; SMILES CC[C@H](C)[C@H](NC(=O)[C@H](CCC(=O)O)NC(=O)[C@H](C)NC(=O)[C@@H](NC(=O)[C@H](C)N)C(C)C)C(=O)N[C@@H](CCC(N)=O)C(=O)N[C@@H](CC(C)C)C(=O)N[C@@H](CCSC)C(=O)N[C@@H](Cc1c[nH]cn1)C(=O)N[C@@H](CCC(N)=O)C(=O)N[C@@H](CCCCNC(=N)N)C(=O)N[C@@H](C)C(=O)NC(C)(C)C(=O)N[C@@H](Cc1c[nH]c2ccccc12)C(N)=O, Aib scan of [M]PTH(1-14); also called 634 Aib-13) [[Aib^13,M]PTH(1-14)]	cAMP EC50	nM	480

# ---- query binder ----
Reported cAMP EC50, binder [Aib]VAEIQLMHQ[hArg]AKW-NH2 (N-terminus assumed; SMILES CC[C@H](C)[C@H](NC(=O)[C@H](CCC(=O)O)NC(=O)[C@H](C)NC(=O)[C@@H](NC(=O)C(C)(C)N)C(C)C)C(=O)N[C@@H](CCC(N)=O)C(=O)N[C@@H](CC(C)C)C(=O)N[C@@H](CCSC)C(=O)N[C@@H](Cc1c[nH]cn1)C(=O)N[C@@H](CCC(N)=O)C(=O)N[C@@H](CCCCNC(=N)N)C(=O)N[C@@H](C)C(=O)N[C@@H](CCCCN)C(=O)N[C@@H](Cc1c[nH]c2ccccc12)C(N)=O, also called 622 Aib-1) [[Aib^1,M]PTH(1-14)] : ____
10
